Target or test system: CB1 (Rattus norvegicus)
Sequence (P20272 whole entry): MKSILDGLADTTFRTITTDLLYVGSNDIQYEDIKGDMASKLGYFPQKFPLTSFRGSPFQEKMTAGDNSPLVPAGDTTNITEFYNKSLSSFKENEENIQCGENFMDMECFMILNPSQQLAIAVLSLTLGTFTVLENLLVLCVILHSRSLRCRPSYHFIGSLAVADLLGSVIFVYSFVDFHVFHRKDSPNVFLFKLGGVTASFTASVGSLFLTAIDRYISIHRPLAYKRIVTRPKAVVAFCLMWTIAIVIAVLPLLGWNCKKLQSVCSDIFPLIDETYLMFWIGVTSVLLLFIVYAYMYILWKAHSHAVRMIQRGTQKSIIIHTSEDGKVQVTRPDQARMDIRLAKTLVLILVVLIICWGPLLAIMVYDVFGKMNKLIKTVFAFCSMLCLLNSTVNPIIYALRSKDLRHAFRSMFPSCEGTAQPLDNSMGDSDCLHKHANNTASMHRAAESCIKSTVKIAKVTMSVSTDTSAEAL
Assay overview: Rat CB1 receptor binding using brain membrane, [3H]SR141716A displacement (Protocol I)
Set-up: CB1 receptor present in a rat brain membrane preparation; from tissue; host or cells: rat brain membrane; dose or concentration left out as unconfirmed
Experimental setup: 1 h; rat brain membrane, [3H]SR141716A displacement; read-out: % Displacement Protocol I
Use inhibition to assign classes; range list: bin 1: < 10%; bin 2: ≥ 10% and < 60%; bin 3: ≥ 60%

Solved entries (count: 10):
O=C(NCc1ccccc1)c1n[nH]c2c1C1CC3CC(CC2C3)C1	bin 2
O=C(NCc1ccccc1)c1nn(-c2ccc(Br)cc2)c2c1C1CCC2C1 (centres unmarked)	bin 2
O=C(NNc1ccc(Cl)c(Cl)c1)c1nn(-c2ccc(Cl)cc2Cl)c2c1C1CCC2C1 (centres unmarked)	bin 1
O=C(NC1CCCCC1)c1nn(-c2ccc(Br)cc2)c2c1C1CCC2C1 (centres unmarked)	bin 2
O=C(NCc1ccc(Cl)cc1Cl)c1nn(-c2ccc(Cl)cc2Cl)c2c1C1CCC2C1 (centres unmarked)	bin 2
O=C(NC1CCCCC1)c1nn(-c2ccc(Cl)cc2Cl)c2c1C1CCC2C1 (centres unmarked)	bin 3
O=C(NCCc1ccccc1)c1nn(-c2ccc(Cl)cc2Cl)c2c1C1CCC2C1 (centres unmarked)	bin 1
COc1ccc(-n2nc(C(=O)NCc3ccccc3Cl)c3c2C2CC4CC(CC3C4)C2)cc1	bin 1
O=C(NNc1ccc(Cl)cc1Cl)c1nn(-c2ccc(Cl)cc2Cl)c2c1C1CC3CC(C1)CC2C3	bin 3
O=C(NNc1ccccc1)c1n[nH]c2c1C1(c3ccccc3)CCC2C1 (centres unmarked)	bin 1

Challenge: Class? Entry: O=C(NCc1ccccc1Cl)c1nn(-c2ccc(Cl)cc2)c2c1C1CC3CC(C1)CC2C3
Response given: bin 3

Challenge: Class? Entry: COc1ccc(-n2nc(C(=O)NNc3ccc(Cl)cc3Cl)c3c2C2CC4CC(CC3C4)C2)cc1
Response given: bin 2

Challenge: Class? Entry: O=C(NNc1ccccc1)c1nn(-c2ccc(F)cc2F)c2c1C1CCC2C1 (centres unmarked)
Response given: bin 3

Challenge: Class? Entry: O=C(NNc1ccccc1)c1nn(-c2ccc(F)cc2)c2c1C1CCC2C1 (centres unmarked)
Response given: bin 2

Challenge: Class? Entry: O=C(NNc1ncccc1Cl)c1nn(-c2ccc(Cl)cc2Cl)c2c1C1CCC2C1 (centres unmarked)
Response given: bin 3

Challenge: Class? Entry: O=C(NNc1ccccc1)c1nn(-c2ccc(Cl)cc2Cl)c2c1C1CCC2C1 (centres unmarked)
Response given: bin 3

Values compiled from patent US7923465B2.
